System: DHL10 Bax/Bak-deficient cells, cytotoxicity, MTS absorbance
Test: cytotoxicity in Bax/Bak-deficient DHL10 cells, late-stage follow-up, counter-screen for MCL1-BIM inhibitor project, cell-based, MTS absorbance, EC50 (AID 493058)
Active and inactive are the calls of the source.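 How the source made its calls: active means EC50 of 10 µM or lower; inactive means EC50 above 10 µM.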
Possible outcomes: label 1 = active, label 0 = inactive

# molecule, class_assignment
records = [
    ("O=C(NC1CC1)c1cc(-c2ccco2)nc2ccccc12", "label 0"),
    ("COc1cccc(NC(=O)c2cc(-c3ccc(C)o3)nc3ccccc23)c1", "label 0"),
    ("Cc1ccc(-c2cc(C(=O)Nc3ccccn3)c3ccccc3n2)o1", "label 0"),
    ("COc1ccc(Cc2nnc(NC(=O)Cc3ccsc3)s2)cc1OC", "label 0"),
    ("CCCCCCNC(=O)c1cc(-c2ccco2)nc2ccccc12", "label 0"),
    ("CN(CCOc1ccc(Cl)cc1)C(=O)c1cc(-c2ccco2)nc2ccccc12", "label 0"),
    ("CC(=O)c1cccc(NC(=O)c2cc(-c3ccco3)nc3ccccc23)c1", "label 0"),
    ("O=C(NCC1CCCO1)c1cc(-c2ccco2)nc2ccccc12 (stereo unspecified)", "label 0"),
    ("Cc1cccc(NC(=O)c2cc(-c3ccco3)nc3ccc(Br)cc23)n1", "label 1"),
    ("COc1ccc(Cc2nnc(NC(=O)Cc3cccs3)s2)cc1OC", "label 0"),
    ("CN(C)C(CNC(=O)c1cc(-c2ccco2)nc2ccccc12)c1ccccc1 (stereo unspecified)", "label 0"),
]

Attribution: PubChem BioAssay AID493058
